Where do these numbers come from? They come from paper PMC11171523.

Test system: poly A–poly U (pApU, AU-RNA) (RNA, polymer) A/U
test-details: fluorimetric titration, Scatchard fit
conditions-used: Na+ (sodium cacodylate, I = 0.05 M); pH 7.0, 25 °C; dye 50 nM; n fixed at 0.2; polynucleotide as phosphate; per base
readout-type: log Ks
Respond using a number only.

molecule-smiles	readout-type	numeric-result
C#CC[N+](C)(C)c1ccc(/C=C/c2cc(/C=C/c3ccc([N+](C)(C)CC#C)cc3)c(/C=C/c3ccc([N+](C)(C)CC#C)cc3)cc2/C=C/c2ccc([N+](C)(C)CC#C)cc2)cc1	log Ks	8.9
C[n+]1ccc(/C=C/c2cc(/C=C/c3cc[n+](C)cc3)cc(/C=C/c3cc[n+](C)cc3)c2)cc1	log Ks	8.7
C[n+]1ccc(/C=C/c2cc(/C=C/c3cc[n+](C)cc3)c(/C=C/c3cc[n+](C)cc3)cc2/C=C/c2cc[n+](C)cc2)cc1	log Ks	8.2
CCCC[n+]1ccc(/C=C/c2cc(/C=C/c3cc[n+](CCCC)cc3)cc(/C=C/c3cc[n+](CCCC)cc3)c2)cc1	log Ks	8.7
C[N+](C)(C)c1ccc(/C=C/c2cc(/C=C/c3ccc([N+](C)(C)C)cc3)c(/C=C/c3ccc([N+](C)(C)C)cc3)cc2/C=C/c2ccc([N+](C)(C)C)cc2)cc1	log Ks	8.6
C[N+](C)(C)c1ccc(/C=C/c2cc(/C=C/c3ccc([N+](C)(C)C)cc3)cc(/C=C/c3ccc([N+](C)(C)C)cc3)c2)cc1	log Ks	8.9

Now examine the next entry.
Write down log Ks measured for item CCCC[N+](C)(CCCC)c1ccc(/C=C/c2cc(/C=C/c3ccc([N+](C)(CCCC)CCCC)cc3)cc(/C=C/c3ccc([N+](C)(CCCC)CCCC)cc3)c2)cc1
8.9
